Listed next: entries and their corresponding melting point.

{"compound": "CCOc1cc(OCC)c(/C=C/C(=O)c2c(OCC)cc(OCC)cc2OCC)c(OCC)c1", "value-units": "°C", "melting point": 160}
{"compound": "COc1cc(OC)c(C(=O)/C=C/c2c(OC)cccc2OC)c(OC)c1", "value-units": "°C", "melting point": 164}
{"compound": "COc1ccc(/C=C/C(=O)c2c(OC)cc(OC)cc2OC)c(OC)c1", "value-units": "°C", "melting point": 105}
{"compound": "COc1ccc(/C=C/C(=O)c2c(OC)cccc2OC)c(OC)c1OC", "value-units": "°C", "melting point": 129}
{"compound": "COc1ccc(C(=O)/C=C/c2cc(OC)c(OC)cc2OC)c(O)c1 [Example 19, 2′-hydroxy-2,4,4′,5-tetramethoxychalcone]", "value-units": "°C", "melting point": 170}
{"compound": "COc1ccc(C(=O)/C=C/c2c(OC)cc(OC)cc2OC)c(O)c1 [Example 20, 2′-hydroxy-2,4,4′,6-tetramethoxychalcone]", "value-units": "°C", "melting point": 167}

---

Listed next: entries and their corresponding G2/M inhibition in %.
Tested on: K562 cells
Assay: Cycle test: blocking in the G2/M phase evaluated by flow cytometry
Assay type: cell-based, human
Details: 24 hours, 10 μM, cells blocked in G2/M phase
property-measured: G2/M inhibition in % (%)

{"compound": "COc1cccc(OC)c1/C=C/C(=O)c1c(OC)cccc1OC [Compound A, reference compound]", "value-reported": 78}
{"compound": "COc1cc(OC)c(/C=C/C(=O)c2c(OC)cccc2OC)c(OC)c1", "value-reported": 84}
{"compound": "COc1cc(OC)c(/C=C/C(=O)c2c(OC)cc(OC)cc2OC)c(OC)c1", "value-reported": 86}
{"compound": "COc1ccc(C(=O)/C=C/c2c(OC)cc(OC)cc2OC)c(OC)c1", "value-reported": 86}
